- System: P. aeruginosa J 154
- Assay text: MIC determination in Muller Hinton Agar (CLSI);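 also: MIC read as lowest concentration giving complete growth inhibition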
- Type: cell-based, Pseudomonas aeruginosa
- Condition info: in presence of Compound A at 4 mcg/ml; P. aeruginosa J 154
The reader will find reported MIC (mcg/ml) of carbapenem in presence of [A] at 4 mcg/ml values listed item by item below.
Only the number, expressed in µg/mL, is required.

Molecule	Unit label	Val
C[C@@H](O)[C@H]1C(=O)N2C(C(=O)O)=C(S[C@@H]3CN[C@H](CNS(N)(=O)=O)C3)[C@H](C)[C@H]12 [Doripenem, doripenem]	µg/mL	8
C[C@@H](O)[C@H]1C(=O)N2C(C(=O)O)=C(S[C@@H]3CN[C@H](C(=O)N(C)C)C3)[C@H](C)[C@H]12 [Meropenem, meropenem]	µg/mL	8

Here is another molecule to look at.
Can you look up the measured MIC (mcg/ml) of carbapenem in presence of [A] at 4 mcg/ml of C[C@@H](O)[C@H]1C(=O)N2C(C(=O)O)=C(SCCN=CN)C[C@H]12 [Imipenem, imipenem] for me?
4

---

- Tested on: P. aeruginosa R 70
- Assay text: MIC determination in Muller Hinton Agar (CLSI);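 also: MIC read as lowest concentration giving complete growth inhibition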
- Format: cell-based, Pseudomonas aeruginosa
- Condition info: in presence of Compound A at 4 mcg/ml; P. aeruginosa R 70
The reader will find reported MIC (mcg/ml) of carbapenem in presence of [A] at 4 mcg/ml values listed item by item below.
Only the number, expressed in µg/mL, is required.

C[C@@H](O)[C@H]1C(=O)N2C(C(=O)O)=C(SCCN=CN)C[C@H]12 2
C[C@@H](O)[C@H]1C(=O)N2C(C(=O)O)=C(S[C@@H]3CN[C@H](CNS(N)(=O)=O)C3)[C@H](C)[C@H]12 8

Here is another compound to look at.
Give MIC (mcg/ml) of carbapenem in presence of [A] at 4 mcg/ml (P. aeruginosa R 70) of the following compound: "C[C@@H](O)[C@H]1C(=O)N2C(C(=O)O)=C(S[C@@H]3CN[C@H](C(=O)N(C)C)C3)[C@H](C)[C@H]12"
16

---

- System: P. aeruginosa R 70
- Assay text: MIC determination in Muller Hinton Agar (CLSI);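 also: MIC read as lowest concentration giving complete growth inhibition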
- Format: cell-based, Pseudomonas aeruginosa
- Condition info: in presence of Compound B at 4 mcg/ml; P. aeruginosa R 70
The reader will find reported MIC (mcg/ml) of carbapenem in presence of [B] at 4 mcg/ml values listed item by item below.

Check out these entries, answers already filled in.
C[C@@H](O)[C@H]1C(=O)N2C(C(=O)O)=C(S[C@@H]3CN[C@H](CNS(N)(=O)=O)C3)[C@H](C)[C@H]12 <0.12 µg/mL
C[C@@H](O)[C@H]1C(=O)N2C(C(=O)O)=C(S[C@@H]3CN[C@H](C(=O)N(C)C)C3)[C@H](C)[C@H]12 ≤0.12 µg/mL
C[C@@H](O)[C@H]1C(=O)N2C(C(=O)O)=C(SCCN=CN)C[C@H]12 ≤0.12 µg/mL

Can you look up the measured MIC (mcg/ml) of carbapenem in presence of [B] at 4 mcg/ml of "C[C@@H](O)[C@H]1C(=O)N2C(C(=O)O)=C(S[C@@H]3CN[C@H](C(=O)Nc4cccc(C(=O)O)c4)C3)[C@H](C)[C@H]12" for me?
≤0.12 µg/mL
